Origin of the recorded values: patent US20240209076A1

# SYSTEM_UNDER_TEST: human IL-6 (human, UniProt P05231 30-212)
# Sequence (P05231 30-212 limits assumed): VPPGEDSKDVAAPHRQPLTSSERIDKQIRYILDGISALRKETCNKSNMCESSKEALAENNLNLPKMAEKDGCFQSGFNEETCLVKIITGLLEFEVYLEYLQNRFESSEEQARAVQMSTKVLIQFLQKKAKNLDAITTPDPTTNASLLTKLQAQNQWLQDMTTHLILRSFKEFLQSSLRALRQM
# ASSAY_DETAILS: SPR (Biacore), supernatant antibody on Protein A chip, IL-6 flowed, 37 C
So I've got a bunch of binders here, and I need their koff values.
All answers are understood in s⁻¹, so give the number only.

Looking up anti-IL-6 antibody, heavy chain T63Q, G66D / light chain M32L, M50D, N52S, M88Q (antibody, human IgG1, V domains shown, Human IgG1) VH: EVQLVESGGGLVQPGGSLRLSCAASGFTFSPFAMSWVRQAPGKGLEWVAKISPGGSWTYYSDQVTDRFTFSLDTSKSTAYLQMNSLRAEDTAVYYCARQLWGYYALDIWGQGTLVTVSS VL: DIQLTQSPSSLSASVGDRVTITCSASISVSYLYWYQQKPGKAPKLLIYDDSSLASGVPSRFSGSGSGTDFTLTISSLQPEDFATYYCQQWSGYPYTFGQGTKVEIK , I see its koff listed as 0.000461

Looking up anti-IL-6 antibody, heavy chain T63Y, G66D / light chain M32L, M50D, N52S, M88Q (antibody, human IgG1, V domains shown, Human IgG1) VH: EVQLVESGGGLVQPGGSLRLSCAASGFTFSPFAMSWVRQAPGKGLEWVAKISPGGSWTYYSDYVTDRFTFSLDTSKSTAYLQMNSLRAEDTAVYYCARQLWGYYALDIWGQGTLVTVSS VL: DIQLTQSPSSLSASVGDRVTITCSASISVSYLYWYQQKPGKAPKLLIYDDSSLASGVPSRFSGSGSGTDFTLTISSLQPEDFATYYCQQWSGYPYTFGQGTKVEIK , I see its koff listed as 0.000459
